Data origin, for the record: paper PMC11277489

Test system: COLO 205
procedure.details: NCI60 one-dose screen (10 μM), Colon Cancer
Assay type: cell-based, human
condition.info: Homo sapiens; 10 μM; COLO 205, Colon Cancer; read-out: Growth percent rate
// reported activity at 10 µM for each item listed
Report the figure in % without appending any unit label.

Worked examples, 4 compounds total:
{"columns": ["compound", "recorded.value"],
 "data": [
  ["CCC12C=CCN3CCC4(c5ccc(OC)cc5N(C)C4C(O)(C(=O)OC)C1OC(=O)CCCN1CCN(C)CC1)C32 (centres unmarked) [Compound 3]", 90],
  ["CC[C@]12C=CCN3CC[C@@]4(c5ccc(OC)cc5N(C)[C@H]4[C@@](O)(C(=O)OC)[C@@H]1OC(=O)CCCN1CCN(Cc4ccc(C(F)(F)F)cc4)CC1)[C@@H]32 [Compound 23]", -82.9],
  ["CC[C@]12C=CCN3CC[C@@]4(c5ccc(OC)cc5N(C)[C@H]4[C@@](O)(C(=O)OC)[C@@H]1OC(=O)CCC(=O)N1CCN(C(c4ccc(F)cc4)c4ccc(F)cc4)CC1)[C@@H]32 [Compound 31]", -45],
  ["CCC12C=CCN3CCC4(c5cc(NC(=O)CN6CCN(C(c7ccc(F)cc7)c7ccc(F)cc7)CC6)c(OC)cc5N(C)C4C(O)(C(=O)OC)C1OC(C)=O)C32 (centres unmarked) [Compound 20]", -60.5]
]}

What value of activity at 10 µM has been reported for the following compound? CCC12C=CCN3CCC4(c5cc(NC(=O)CN6CCN(c7ccc(C(F)(F)F)cc7)CC6)c(OC)cc5N(C)C4C(O)(C(=O)OC)C1OC(C)=O)C32 (centres unmarked) [Compound 17]
-74.5

====

Tested on: SK-OV-3
procedure.details: NCI60 one-dose screen (10 μM), Ovarian Cancer
Assay type: cell-based
condition.info: Homo sapiens; 10 μM; SK-OV-3, Ovarian Cancer; read-out: Growth percent rate
Lab note: cut-off is 70%. Strictly less in activity at 10 µM is y. Exactly 70% or more is n.

Below 70% on activity at 10 µM? Entry CC[C@]12C=CCN3CC[C@@]4(c5ccc(OC)cc5N(C)[C@H]4[C@@](O)(C(=O)OC)[C@@H]1OC(=O)CCC(=O)N1CCN(Cc4ccc(F)cc4)CC1)[C@@H]32
n

====

// reported activity at 10 µM for each item listed
Test system: K-562
procedure.details: NCI60 one-dose screen (10 μM), Leukemia
Assay type: cell-based
condition.info: Homo sapiens, K562, read-out: Growth percent rate
Include the unit right after the number.

{"columns": ["molecule", "recorded.value"],
 "data": [
  ["CCC12C=CCN3CCC4(c5cc(NC(=O)CN6CCN(Cc7ccc(F)cc7)CC6)c(OC)cc5N(C)C4C(O)(C(=O)OC)C1OC(C)=O)C32 (stereo not drawn)", "74%"]
]}

What value of activity at 10 µM has been reported for the following molecule? CCC12C=CCN3CC[C@@]4(c5ccc(OC)cc5N(C)[C@H]4[C@@](O)(C(=O)OC)[C@@H]1OC(C)=O)[C@@H]32 (stereo partly drawn)
89.3%

What value of activity at 10 µM has been reported for the following molecule? CC[C@]12C=CCN3CC[C@@]4(c5ccc(OC)cc5N(C)[C@H]4[C@@](O)(C(=O)OC)[C@@H]1OC(=O)CCCN1CCN(C(c4ccc(F)cc4)c4ccc(F)cc4)CC1)[C@@H]32
-1.7%

What value of activity at 10 µM has been reported for the following molecule? CC[C@]12C=CCN3CC[C@@]4(c5ccc(OC)cc5N(C)[C@H]4[C@@](O)(C(=O)OC)[C@@H]1OC(=O)CCC(=O)N1CCN(C(=O)c4ccco4)CC1)[C@@H]32
102%

What value of activity at 10 µM has been reported for the following molecule? CCC12C=CCN3CCC4(c5cc(NC(=O)CN6CCN(Cc7ccc(C(F)(F)F)cc7)CC6)c(OC)cc5N(C)C4C(O)(C(=O)OC)C1OC(C)=O)C32 (stereo not drawn)
43.8%

What value of activity at 10 µM has been reported for the following molecule? CCC12C=CCN3CCC4(c5ccc(OC)cc5N(C)C4C(O)(C(=O)OC)C1O)C32 (stereo not drawn)
101%
